Recorded measurements of Drug uptake, one per entry
Tested on: Stomach
Assay: Drug uptake in ICR mouse stomach assessed per organ at 370 kBq/100 ul, iv at 2 mins by gamma-counting analysis
Format: ADME, organism-based
Conditions: in vivo
Kindly answer with a numeric value in %ID, unit omitted.

Some solved entries appear below for comparison.
| QUERY_SMILES | ASSAYED_SYSTEM | QUANTITY_NAME | UNIT_SPEC | RECORDED_VALUE |
| --- | --- | --- | --- | --- |
| CNc1ccc(-c2nc3cc(OCC[18F])ccc3o2)cn1 | Stomach | Drug uptake | %ID | 3.24 |
| CNc1ccc(-c2nc3ccc(OCC[18F])cc3s2)cn1 | Stomach | Drug uptake | %ID | 3.61 |

Challenge: What value of Drug uptake has been reported for the following molecule? `CNc1ccc(-c2nc3cc(OCCOCCOCC[18F])ccc3o2)cn1`
Response given: 5.08

Challenge: Please do the same for `CN(C)c1ccc(-c2nc3ccc(OCCOCCOCC[18F])cc3s2)cn1` as well.
Response given: 2.55

Challenge: Please do the same for `CN(C)c1ccc(-c2nc3cc(OCCOCCOCC[18F])ccc3o2)cn1` as well.
Response given: 2.66

Challenge: Please do the same for `CN(C)c1ccc(-c2nc3cc(OCC[18F])ccc3o2)cn1` as well.
Response given: 2.44

Challenge: Please do the same for `CNc1ccc(-c2nc3ccc(OCCOCCOCC[18F])cc3s2)cn1` as well.
Response given: 2.96

Reference for the values: ChEMBL document CHEMBL2177098
